FYI, the data here is from PubChem BioAssay AID449745.

- system: Zinc finger protein mex-5 (Caenorhabditis elegans)
- assay notes: MEX-5 RNA-binding inhibition confirmation – biochemical, C. elegans, fluorescence polarization, dose retest (AID 449745);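 also: potency is for blocking Mex-5 binding to labeled TCR2 RNA like unlabeled competitor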
- condition: Mex-5 / TCR-2 RNA binding
Results filed as inconclusive are left out. Calls of active or inactive are those of the source. No rule for the calls is given here.
property: AC50

{"columns": ["molecule", "AC50"],
 "data": [
  ["CCc1nnc(NC(=O)CCN2C(=O)/C(=C/c3cc(OC)c(OC)c(OC)c3)SC2=S)s1", "> 38 µM (inactive)"],
  ["O=C(O)c1c2c(nc3ccccc13)/C(=C/c1ccc(O)cc1)CC2", "36.4 µM"],
  ["COc1cc2c(cc1N/C=C(\\C#N)c1nc(-c3ccc(F)cc3)cs1)oc1ccccc12", "> 38 µM (inactive)"],
  ["O=C(c1ccc(Cl)cc1)C1C2C(=O)N(c3ccccc3)C(=O)C2C2CCCN21 (configuration not stated)", "19.8 µM"]
]}

# input Query AC50 for O=C(C1=NN(c2ccccc2)C2C(=O)N(c3ccccc3)C(=O)C12)c1ccccc1 (configuration not stated)
# output 32 µM

# input Identify the reported AC50 for the following entry. CN(C)[C@@H]1C(=O)C(C(N)=O)=C(O)[C@@]2(O)C(=O)C3=C(O)c4c(O)cccc4[C@@](C)(O)[C@H]3[C@H](O)[C@@H]12
# output 12 µM

# input Quickly give me recorded AC50 for Cc1cc(=O)n2[nH]c(=O)c(N=Nc3ccccc3)c2[nH]1
# output < 0.3 µM

# input Look up AC50 of CC(=O)OC1=C(O)C(=O)c2ccccc2C1=O and report it.
# output 10.3 µM

# input Note AC50 for the molecule shown: COc1ccc(N=Nc2nc3ccc(Br)cc3n2C)cc1
# output 34.9 µM

----------
- system: Zinc finger protein mex-5 (Caenorhabditis elegans) (UniProt Q9XUB2)
- Sequence (Q9XUB2 whole entry, looked up): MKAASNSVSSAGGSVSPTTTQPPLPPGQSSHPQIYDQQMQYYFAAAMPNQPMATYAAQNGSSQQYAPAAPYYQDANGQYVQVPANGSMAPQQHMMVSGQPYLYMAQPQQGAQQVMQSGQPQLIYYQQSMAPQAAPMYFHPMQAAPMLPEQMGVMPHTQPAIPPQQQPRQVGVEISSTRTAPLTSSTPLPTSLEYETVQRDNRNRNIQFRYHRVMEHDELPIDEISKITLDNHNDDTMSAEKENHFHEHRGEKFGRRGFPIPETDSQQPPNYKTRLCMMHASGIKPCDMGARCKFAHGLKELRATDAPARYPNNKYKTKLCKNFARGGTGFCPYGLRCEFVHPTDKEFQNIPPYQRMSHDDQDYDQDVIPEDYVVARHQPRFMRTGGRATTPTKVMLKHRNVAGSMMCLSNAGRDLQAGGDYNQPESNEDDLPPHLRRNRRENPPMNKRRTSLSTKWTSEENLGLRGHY
- assay notes: MEX-5 RNA-binding inhibition confirmation – biochemical, C. elegans, fluorescence polarization, dose retest (AID 449745);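 also: potency is for blocking Mex-5 binding to labeled TCR2 RNA like unlabeled competitor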
- condition: Mex-5 / TCR-2 RNA binding
Inconclusive results are not listed. Active and inactive are the calls of the source. No rule for the calls is given here.
I would appreciate it if you answered using one of these outcomes: active, inactive

The examples below pair each entry with its known result.
{"columns": ["molecule", "answer label"],
 "data": [
  ["O=C(O[C@@H]1OC2COC(=O)c3cc(O)c(O)c(O)c3-c3c(cc(O)c(O)c3O)C(=O)O[C@@H]([C@H]1O)[C@@H]2O)c1cc(O)c(O)c(O)c1", "active"],
  ["CC1=NOC(=O)/C1=C/c1ccc2c(c1)OCO2", "inactive"],
  ["CC(C)C[C@H](NC(=O)C1CC(=O)N(c2ccc3c(c2)OCO3)C1)C(=O)NC1CCCC1 (stereo partly specified)", "active"]
]}

# input What did the test return for O=C(c1nc2ccc(Cl)cn2c1CN1CCCC1)N1CCc2ccccc2C1 ?
# output active

# input Check the results log: what was the call for CC1(OC(=O)C2CCCC2)C(=O)C=C2C=C(c3ccc(C#N)cc3)OC=C2C1=O (stereo unspecified) ?
# output active

# input Called result for Cc1nn2c(N)csc2nc1=O
# output active

# input What classification did CCOC(=O)c1cc(C#N)c(SCC(N)=O)[nH]c1=O end up with in this test?
# output inactive

# input Each molecule tested received a call. Report the one for CC1CN(c2nc3ccccc3nc2C(C#N)C(=O)NCc2ccc3c(c2)OCO3)CC(C)O1 (stereo unspecified) .
# output active
